Data origin, for the record: patent US8354403B2

# pEC50 listing for each entry below
# SUBJECT_OF_TEST: human β3 adrenergic receptor (Homo sapiens, UniProt P13945)
# Construct: expressed in transfected cells; host or cells: Chinese hamster ovary (CHO) cells, stably transfected
# Sequence (P13945 whole entry): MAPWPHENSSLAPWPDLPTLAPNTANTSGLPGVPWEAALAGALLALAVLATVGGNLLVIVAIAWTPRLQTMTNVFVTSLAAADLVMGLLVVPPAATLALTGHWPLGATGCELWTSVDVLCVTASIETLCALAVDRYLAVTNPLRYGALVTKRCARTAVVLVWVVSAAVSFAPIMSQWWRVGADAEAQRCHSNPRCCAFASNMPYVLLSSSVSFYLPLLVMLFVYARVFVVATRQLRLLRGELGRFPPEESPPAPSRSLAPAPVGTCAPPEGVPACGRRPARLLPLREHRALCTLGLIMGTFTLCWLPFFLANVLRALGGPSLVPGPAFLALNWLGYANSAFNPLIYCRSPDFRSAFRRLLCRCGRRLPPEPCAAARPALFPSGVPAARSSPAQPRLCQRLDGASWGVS
# EXPERIMENT: Beta-3 agonist in vitro functional assay: cAMP production (LANCE TR-FRET) in CHO cells stably transfected with the cloned β3 receptor
# Type: cell-based
# MEASUREMENT_PARAMETERS: Table 9; Beta-3 agonist in vitro functional assay; read-out: Human β3 agonist functional activity
# Experimental: Chinese hamster ovary (CHO) cells, stably transfected with the cloned β-adrenergic receptor (β1, β2 or β3) are harvested after 3 days of subculturing. Harvesting of cells is done with Enzyme-free Dissociation Media (Specialty Media). Cells are then counted and resuspended in assay buffer (Hank's Balanced salt solution supplemented with 5 mM HEPES, […]) containing a phosphodiesterase inhibitor (IBMX, 0.6 mM). […]
pEC50: −log10 of the molar value.

Answered cases to consult:
CC(c1ncccc1F)N1CCN(C(=O)c2ccc(C[C@@H]3CC[C@H]([C@H](O)c4ccccc4)N3)cc2)CC1 (some centres unmarked) [Example 425]: 7.00 to 8.00
O=C(O)CN1CCN(C(=O)c2ccc(C[C@@H]3CC[C@H]([C@H](O)c4ccccc4)N3)cc2)CC1 [Example 390]: 6.00 to 7.00

Would you kindly share the measured pEC50 for O=C(c1ccc(C[C@@H]2CC[C@H]([C@H](O)c3ccccc3)N2)cc1)N1CCN(c2nccnc2Cl)CC1 [Example 371] ?
6.00 to 7.00

And the next one, CS(=O)(=O)N1CCN(C(=O)c2ccc(C[C@@H]3CC[C@H]([C@H](O)c4ccccc4)N3)cc2)CC1 [Example 345] ?
6.00 to 7.00

And the next one, COC(=O)c1ccccc1N1CCN(C(=O)c2ccc(C[C@@H]3CC[C@H]([C@H](O)c4ccccc4)N3)cc2)CC1 [Example 351] ?
7.00 to 8.00

And the next one, O=C(c1ccc(C[C@@H]2CC[C@H]([C@H](O)c3ccccc3)N2)cc1)N1CCN(c2ncccn2)CC1 [Example 370] ?
6.00 to 7.00

And the next one, CC(C)C(c1ccccn1)N1CCN(C(=O)c2ccc(C[C@@H]3CC[C@H]([C@H](O)c4ccccc4)N3)cc2)CC1 (some centres unmarked) [Example 419] ?
7.00 to 8.00

And the next one, O=C(c1ccc(C[C@@H]2CC[C@H]([C@H](O)c3ccccc3)N2)cc1)N1CCN(Cc2ccon2)CC1 [Example 393] ?
7.00 to 8.00

====

# EC50 listing for each entry below
# SUBJECT_OF_TEST: human β3 adrenergic receptor (Homo sapiens, UniProt P13945)
# Construct: expressed in transfected cells; host or cells: Chinese hamster ovary (CHO) cells, stably transfected
# EXPERIMENT: Beta-3 agonist in vitro functional assay: cAMP production (LANCE TR-FRET) in CHO cells stably transfected with the cloned β3 receptor
# Format: cell-based
# MEASUREMENT_PARAMETERS: Table 9; Beta-3 agonist in vitro functional assay; read-out: Human β3 agonist functional activity

Answered cases to consult:
Cc1cc(C)nc(N2CCN(C(=O)c3ccc(C[C@@H]4CC[C@H]([C@H](O)c5ccccc5)N4)cc3)CC2)n1: 100 to 999 nM
O=C(c1ccc(C[C@@H]2CC[C@H]([C@H](O)c3ccccc3)N2)cc1)N1CCN(c2ccncc2)CC1: 100 to 999 nM

Would you kindly share the measured EC50 for O=C(c1ccc(C[C@@H]2CC[C@H]([C@H](O)c3ccccc3)N2)cc1)N1CCN(Cc2ccccc2F)CC1 ?
10 to 99.9 nM
